These records show IC50 for ROCK2 (Homo sapiens).

Observe how each entry below is paired with its result.
1) O=C1N(Cc2cccc(OCC3CC3)c2)CCN1c1ccc(-c2cn[nH]c2)nc1 [Example 441] : 200 to 2000 nM
2) COc1cccc(C(C)N2CCN(c3ccc(-c4cn[nH]c4)cn3)C2=O)c1 (single isomer, unassigned) [Example 460] : < 2 nM
3) COc1nc(N2CCN(CC3CCCO3)C2=O)ccc1-c1cn[nH]c1 (stereo not shown) [Example 254] : 20.1 to 200 nM

Next molecule, please.
Find the recorded IC50 belonging to O=C1CN(c2ccc(-c3cn[nH]c3)cc2)C(=O)N1Cc1ccccc1Cl [Example 111] and report it.
2.1 to 20 nM
